Measured values drawn from patent US20260242478A1 for this set.

ASSAY SYSTEM: Anti-CD28 Fab (SEQ ID NOs: 696, 697)
Sequence (VH, as listed by the source, chain 1 of 2): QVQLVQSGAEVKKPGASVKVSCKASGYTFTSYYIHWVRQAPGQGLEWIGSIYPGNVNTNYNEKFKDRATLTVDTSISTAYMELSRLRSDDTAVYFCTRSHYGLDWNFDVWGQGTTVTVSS
Sequence (VL, as listed by the source, chain 2 of 2): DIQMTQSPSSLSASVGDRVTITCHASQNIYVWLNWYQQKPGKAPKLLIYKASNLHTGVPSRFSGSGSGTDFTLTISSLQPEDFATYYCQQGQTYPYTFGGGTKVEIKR
ASSAY: phage binding ELISA; anti-CD28 Fab on plate pre-incubated with CD28 antigen as competitor
Parameter: Anti-CD28 Fab signal in the presence of CD28. Scope: all listed entries.
ATTRIBUTE MEASURED: Anti-CD28 Fab signal in the presence of CD28

>>> df
                                     binder  experimental_value
0  TCAAGASYQWPLCF [Phage-1462 peptide (Peptide-92 library, SEQ ID NO: 1758)]                0.07
1  TCAAGANYPWPLCL [Phage-1474 peptide (Peptide-92 library, SEQ ID NO: 1770)]                0.08
2  LCKPGVPYQWPTCL [Phage-1465 peptide (Peptide-92 library, SEQ ID NO: 1761)]                0.07
3  SCAAGASYSWPACF [Phage-1463 peptide (Peptide-92 library, SEQ ID NO: 1759)]                0.07
4  SCSAGFHYPWPICL [Phage-1464 peptide (Peptide-92 library, SEQ ID NO: 1760)]                0.07
5  SCAAGASYPWPQCL [Phage-1470 peptide (Peptide-92 library, SEQ ID NO: 1766)]                0.11
